tested on: ASK2; construct: gene MAP3K6; conditions: concentration: 1 μM, replicates: in singlicate; n = 1
Please respond with reported %Inh for every item in the list.
Give the value in % but do not write % after it.

Exercise: Which %Inh value is on record for CC(C)(C)OC(=O)NC1CCCN(c2cc(-c3ccc4c(N)n[nH]c4c3)nc(N)n2)C1 (centres unmarked) ?
Key: 0

Exercise: Which %Inh value is on record for Cn1ccc2ncnc(Oc3ccc(NC(=O)Nc4cccnc4)c(Cl)c3)c21 ?
Key: 0

Exercise: Which %Inh value is on record for CCc1nc(-c2cccc(C)c2)c(-c2ccnc(NC(=O)c3ccccc3)c2)s1 ?
Key: 0

Exercise: Which %Inh value is on record for CCn1c(-c2ccncc2)nc2cnccc21 ?
Key: 20

Exercise: Which %Inh value is on record for O=c1cc(N2CCOCC2)nc2n(Cc3cccc(Cl)c3)ccn12 ?
Key: 0

* * *

system: TRPM6; details: concentration: 1 μM, replicates: in singlicate; n = 1
reported endpoint: %Inh (%)
Give the value in % but do not write % after it.

Exercise: Which %Inh value is on record for O=c1cc(N2CCOCC2)nc2n(Cc3cccc(Cl)c3)ccn12 ?
Key: 11

Exercise: Which %Inh value is on record for FC(F)(F)c1ccc(-c2cc(-c3c[nH]nc3-c3ccccn3)ccn2)cc1 ?
Key: 38

Exercise: Which %Inh value is on record for Fc1cccc(COc2ccc(Nc3ncnc4nn5ccccc5c34)cc2Cl)c1 ?
Key: 0

Exercise: Which %Inh value is on record for Fc1ccc(-c2ncn(CCCNCc3ccccc3)c2-c2ccncc2)cc1 ?
Key: 12

Exercise: Which %Inh value is on record for Nc1nc(-c2ccc3c(N)n[nH]c3c2)cc(N2CCC[C@@H](C(=O)Nc3ccccc3)C2)n1.O=C(O)C(F)(F)F.O=C(O)C(F)(F)F ?
Key: 34

Exercise: Which %Inh value is on record for COc1ccc(NC(=O)c2ccc(-c3cc(-c4nnc(C)o4)ccc3C)cc2)cc1 ?
Key: 0

Exercise: Which %Inh value is on record for Cl.c1ccc(Cn2ccc3cc(Nc4ncnc5ccccc45)ccc32)cc1 ?
Key: 32

Exercise: Which %Inh value is on record for COc1ccc(NC(=O)Nc2ccc(C)c(-c3ccc(C(=O)Nc4ccncc4)cc3)c2)cc1 ?
Key: 0

Exercise: Which %Inh value is on record for C[C@@H]1CCN(C(=O)CO)C[C@@H]1N(C)c1ncnc2[nH]ccc12 ?
Key: 0

* * *

reported endpoint: pKd
Please keep in mind that pKd is minus log10 of the molar concentration; only the number is needed.

Exercise: Could you share what pKd was measured for FC(F)(F)c1ccc(-c2cc(-c3c[nH]nc3-c3ccccn3)ccn2)cc1 [GW599550] , tested on TGFBR1?;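 note: kd values determined as follow-up on hits from a single-replicate KINOMEscan panel screen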
Key: 6.66

* * *

test system: MARK2; settings: concentration: 1 μM, replicates: in singlicate; n = 1
reported endpoint: %Inh (%)
Give the value in % but do not write % after it.

Exercise: Which %Inh value is on record for COc1cc2c(Nc3cccc(NC(=O)c4ccccc4)c3)ncnc2cc1OCCCN1CCOCC1 ?
Key: 0

Exercise: Which %Inh value is on record for OCCOCCn1ccc2ncnc(Nc3ccc(Oc4cccc(Cl)c4)c(Cl)c3)c21 ?
Key: 0

Exercise: Which %Inh value is on record for CS(=O)(=O)CCNCc1ccc(-c2ccc3ncnc(Nc4ccc(OCc5ccccc5)c(Cl)c4)c3c2)o1.Cl ?
Key: 0

Exercise: Which %Inh value is on record for O=C(Nc1ccccc1)Nc1ccc(Oc2ccc3nccn3n2)cc1 ?
Key: 0

Exercise: Which %Inh value is on record for CCCc1ccc(S(=O)(=O)NC2CCN(c3ccnc(Nc4ccc(OC)cc4)n3)C2)cc1 (stereo not drawn) ?
Key: 0

Exercise: Which %Inh value is on record for COc1ccc(Nc2nccc(N3CCC(NC(=O)Nc4ccc5c(c4)OCO5)C3)n2)cc1 (stereo not drawn) ?
Key: 0

Exercise: Which %Inh value is on record for Cc1cc(N2CCC(NS(=O)(=O)c3ccc(F)cc3)CC2)nc(Nc2cccc(C#N)c2)n1.O=C(O)C(F)(F)F ?
Key: 0

Exercise: Which %Inh value is on record for Nc1nc(-c2cccnc2)c(-c2ccnc3ccccc23)s1 ?
Key: 0

Exercise: Which %Inh value is on record for Cl.c1ccc(Cn2ncc3cc(Nc4ncnc5ccccc45)ccc32)cc1 ?
Key: 0
